Source of measurements: patent US20210155689A1

Catalogue of OD450 readings, one per entry.
# assay.target: T1, hFc tagged monkey LAG-3 protein (cLAG-3-hFc protein) (monkey; human)
# T1 construct: Made in HEK293 cells; also called monkey LAG-3 extracellular domain protein; not shown: human IgG Fc fragment (hFc) of the pCpC vector
# T1 chain: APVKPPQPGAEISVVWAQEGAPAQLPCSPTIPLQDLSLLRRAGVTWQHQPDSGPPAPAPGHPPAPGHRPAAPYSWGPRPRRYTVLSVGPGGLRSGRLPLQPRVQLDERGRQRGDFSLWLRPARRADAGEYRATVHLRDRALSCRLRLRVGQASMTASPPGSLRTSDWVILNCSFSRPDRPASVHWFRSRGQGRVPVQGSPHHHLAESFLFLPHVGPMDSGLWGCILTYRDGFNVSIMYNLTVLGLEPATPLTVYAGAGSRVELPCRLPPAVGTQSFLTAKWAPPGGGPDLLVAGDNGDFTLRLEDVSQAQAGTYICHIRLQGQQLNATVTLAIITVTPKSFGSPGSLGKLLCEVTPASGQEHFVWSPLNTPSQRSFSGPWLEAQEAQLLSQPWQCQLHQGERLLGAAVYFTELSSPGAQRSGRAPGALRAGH
# assay.overview: ELISA, cLAG-3-hFc coated; 6.6667 nM
# Procedure: The plate was sealed with plastic film and incubated overnight at 4° C. The plate was washed 2 times with the plate washing solution (PBS+0.01% Tween20) on the next day, and added with the blocking solution (PBS+0.01% Tween20+1% BSA) and blocked at room temperature for 1-2 hours. […]
quantity.name: OD450

* 105F1E10 (LAG-3 mouse-human chimeric antibody) (antibody, V domains shown) VH: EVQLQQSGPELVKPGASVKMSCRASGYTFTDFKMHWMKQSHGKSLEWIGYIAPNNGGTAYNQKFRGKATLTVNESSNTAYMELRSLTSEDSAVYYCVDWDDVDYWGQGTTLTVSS VL: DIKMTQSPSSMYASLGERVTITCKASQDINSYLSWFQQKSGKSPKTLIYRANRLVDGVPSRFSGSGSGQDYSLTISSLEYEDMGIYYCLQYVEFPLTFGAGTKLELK | 3.53 OD450
* 556F6B8 (LAG-3 mouse-human chimeric antibody) (antibody, V domains shown, also called 556F8B8) VH: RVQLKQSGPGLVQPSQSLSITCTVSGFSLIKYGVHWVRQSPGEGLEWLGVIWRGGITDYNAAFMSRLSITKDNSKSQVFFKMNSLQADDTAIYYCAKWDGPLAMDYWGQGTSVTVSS VL: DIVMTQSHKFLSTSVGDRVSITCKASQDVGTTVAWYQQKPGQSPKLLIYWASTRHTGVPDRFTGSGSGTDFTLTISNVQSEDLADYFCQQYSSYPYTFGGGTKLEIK | 3.78 OD450
